Value source: ChEMBL document CHEMBL3351548

Kindly state AUC(0-t) for each of the entries shown.
assay: AUClast in Swiss albino mouse at 3 mg/kg, po; assay type: ADME, organism-based; set-up: time 0 - last, dose 3 mg/kg, route oral; conditions: plasma
Numbers only, in µM·h.

Study these solved cases before continuing.
CN1CCN(Cc2ccc(-c3cn([C@H]4CC[C@H](O)CC4)c4nc(NCCC5CC5)ncc34)cc2)CC1    9
CN1CCN(S(=O)(=O)c2ccc(-c3cn([C@H]4CC[C@H](O)CC4)c4nc(NCCC5CC5)ncc34)c(F)c2)CC1    0.69
CCCCNc1ncc2c(-c3ccc(S(=O)(=O)N4CCOCC4)cc3)nn([C@H]3CC[C@H](O)CC3)c2n1    0.01
CCCCNc1ncc2c(-c3ccc(CN4CCN(C)CC4)cc3)cn([C@H]3CC[C@H](O)CC3)c2n1    9.2

Enquiry: // Input: CCCCNc1ncc2c(-c3ccc(S(=O)(=O)N4CCOCC4)cc3)cn([C@H]3CC[C@H](O)CC3)c2n1 . Output its AUC(0-t) only.
Return: 0.12

----------
experiment: AUClast in Swiss albino mouse at 1 mg/kg, iv; format: ADME, organism-based; parameters: dose 1 mg/kg, route intravenous, time 0 - last; conditions: plasma
ASSAY_METRIC: AUC(0-t) (µM·h)
Numbers only, in µM·h.

Enquiry: // Input: CCCCNc1ncc2c(-c3ccc(S(=O)(=O)N4CCN(C)CC4)c(F)c3)cn([C@H]3CC[C@H](O)CC3)c2n1 . Output its AUC(0-t) only.
Return: 0.27

----------
test: Cmax in Swiss albino mouse at 1 mg/kg, iv; format: ADME, organism-based; parameters: dose 1 mg/kg, route intravenous; conditions: in vivo
ASSAY_METRIC: Cmax
Mention the unit after the number when you answer.

Enquiry: // Input: CCCCNc1ncc2c(-c3ccc(S(=O)(=O)N4CCN(C)CC4)c(F)c3)cn([C@H]3CC[C@H](O)CC3)c2n1 . Output its Cmax only.
Return: 400 nM

----------
experiment: Cmax in Swiss albino mouse at 10 mg/kg, po; assay type: ADME, organism-based; parameters: dose 10 mg/kg, route oral; settings: in vivo
ASSAY_METRIC: Cmax
Mention the unit after the number when you answer.

Enquiry: // Input: CCCCNc1ncc2c(-c3ccc(S(=O)(=O)N4CCN(C)CC4)c(F)c3)cn([C@H]3CC[C@H](O)CC3)c2n1 . Output its Cmax only.
Return: 390 nM

----------
assay: Half life in Swiss albino mouse at 1 mg/kg, iv; type: ADME, organism-based; parameters: dose 1 mg/kg, route intravenous; details: in vivo
ASSAY_METRIC: half-life

Enquiry: // Input: CCCCNc1ncc2c(-c3ccc(S(=O)(=O)N4CCN(C)CC4)c(F)c3)cn([C@H]3CC[C@H](O)CC3)c2n1 . Output its half-life only.
Return: 48 min

----------
system: Mus musculus; assay: Oral bioavailability in Swiss albino mouse at 3 mg/kg; type: ADME, organism-based; conditions: in vivo
Kindly state F for each of the entries shown.
Answers are plain numbers, in %.

Study these solved cases before continuing.
CCCCNc1ncc2c(-c3ccc(S(=O)(=O)N4CCOCC4)cc3)cn([C@H]3CC[C@H](O)CC3)c2n1    8.4
CCCCNc1ncc2c(-c3ccc(S(=O)(=O)N4CCOCC4)cc3)nn([C@H]3CC[C@H](O)CC3)c2n1    0.3

Enquiry: // Input: CN1CCN(S(=O)(=O)c2ccc(-c3cn([C@H]4CC[C@H](O)CC4)c4nc(NCCC5CC5)ncc34)c(F)c2)CC1 . Output its F only.
Return: 67
